// provenance: ChEMBL document CHEMBL5584315

Provide the reported viability at 24 h, 40 µM of each item.
# assay.details: Cytotoxicity against mouse BV-2 cells assessed as cell viability at 40 uM measured after 24 hrs by MTT assay relative to control
# Type: toxicity, cell-based
# details: read-out: Activity

Could you share which viability at 24 h, 40 µM value was measured for O=C1CCCCN1Cc1ccco1 ?
> 98%

Do the same for CSc1nc(NC/C=C(/C)CO)c2ncn([C@@H]3O[C@H](COC(C)=O)[C@@H](O)[C@H]3O)c2n1 please
> 98%

Do the same for CC(C)C[C@@H]1NC(=O)[C@H](Cc2c[nH]c3ccccc23)NC1=O please
> 98%

Do the same for O=C1CCCN1Cc1ccco1 please
> 98%

Do the same for O=C(O)c1cccc2nc3ccccc3nc12 [PHENAZINE-1-CARBOXYLIC ACID] please
> 98%

Do the same for COC(=O)c1cccc2nc3ccccc3nc12 please
> 98%
